protein stability index overview
B1: CLCN6 (parent)
chain: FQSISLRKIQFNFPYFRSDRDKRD

variants of: B1; assay: protein stability index of a GFP-peptide fusion (GPS, HEK-293T) (PSI 1-6); higher = more stable; details: c terminus: a fixed tail appended;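 further: lentivirally expressed fusions sorted by FACS into six bins by GFP to DsRed ratio, PSI derived from sequencing read proportions per bin multiplied by bin number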

Below, 3 variants whose answers are already recorded.
biopolymer_sequence: FYSISLRKIQFNFPYFRSDRDKRD
meas_value: 1.33
--
biopolymer_sequence: FQSISLRKIPFNFPYFRSDRDKRD
meas_value: 1.74
--
biopolymer_sequence: FQSIMLRKIQFNFPYFRSDRDKRD
meas_value: 1.46

# input # protein stability index lookup, item FQSISLRKIQFNFPYFRSDRGKRD
# output 1.27

# input Entry to check: FQSISLRKIQFNFPYARSDRDKRD
# output 1.68

# input Entry to check: FQSISLRKIYFNFPYFRSDRDKRD
# output 1

# input Entry to check: FQSISLRKIQFNFPYNRSDRDKRD
# output 2.68

# input Entry to check: FQSISLRKQQFNFPYFRSDRDKRD
# output 2.81

# input Entry to check: FQSISLRKISFNFPYFRSDRDKRD
# output 1.98

# input Entry to check: FQSISLRKIQFNFPYFRSDRDKCD
# output 1.67

# input Entry to check: FQSISLRKIQFNFPYFRSIRDKRD
# output 2

# input Entry to check: FQSISLRKIQFNFPYFRDDRDKRD
# output 1.71

# input Entry to check: FQSISLRKIQFNFPYFRSDRDKYD
# output 1.28

# input Entry to check: FQSISLRKIQFNYPYFRSDRDKRD
# output 2.49

# input Entry to check: FQSISLRKIQFNFPYFRSDRDDRD
# output 1.92

# input Entry to check: FQSISLRKILFNFPYFRSDRDKRD
# output 1.67

# input Entry to check: FQSISLRKIQFNFPYSRSDRDKRD
# output 1.83

# input Entry to check: FQSSSLRKIQFNFPYFRSDRDKRD
# output 1.74

# input Entry to check: FQSISLRKIQFNFPYFRSDRDKRV
# output 1.31

# input Entry to check: FQSIQLRKIQFNFPYFRSDRDKRD
# output 1.66

# input Entry to check: FQSISLRKIQFNFPYFRSDRDKMD
# output 1.38

# input Entry to check: FQSISLRKIQFNQPYFRSDRDKRD
# output 2.28

# input Entry to check: FQSISLRKIQFNFPYFNSDRDKRD
# output 2.21

# input Entry to check: FQSISLRKIQFNFPYLRSDRDKRD
# output 1.44

Values were extracted from the supplement of paper PMC10567573.
